- testedTarget: UniProt P08173
- Sequence (P08173 whole entry): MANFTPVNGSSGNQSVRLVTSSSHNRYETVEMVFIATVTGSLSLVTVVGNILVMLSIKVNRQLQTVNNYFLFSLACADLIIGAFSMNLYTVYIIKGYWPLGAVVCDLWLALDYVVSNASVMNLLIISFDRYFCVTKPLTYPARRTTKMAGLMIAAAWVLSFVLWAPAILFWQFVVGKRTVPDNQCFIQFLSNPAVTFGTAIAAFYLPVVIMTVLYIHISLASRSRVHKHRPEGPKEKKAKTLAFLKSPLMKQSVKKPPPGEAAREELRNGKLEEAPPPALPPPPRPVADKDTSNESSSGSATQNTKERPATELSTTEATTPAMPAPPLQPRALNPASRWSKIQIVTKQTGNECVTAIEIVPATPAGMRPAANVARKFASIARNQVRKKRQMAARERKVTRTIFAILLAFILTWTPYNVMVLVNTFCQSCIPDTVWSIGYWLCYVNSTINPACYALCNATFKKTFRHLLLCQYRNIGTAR
- assayName: mAChR M4 cell-based functional assay (calcium flux), human M4
- measurementContext: Human M4 EC50 (nM), Table 10; calcium flux, PAM activity with EC20 acetylcholine
Where a name gives a salt, the structure may show the parent alone.
Threshold 1000 nM. EC50 below it: t. EC50 at it or above: f.

> print(dat)
                                    molecule  class
 1  Cc1nnc2sc3c(NCc4ccc(-c5ccc[nH]5)cc4)ncnc3c2c1C [Compound 191]      t
 2  Cc1nnc2sc3c(NCc4ccc(C(C)(C)O)cc4F)ncnc3c2c1C [Compound 107]      t
 3  Cc1cc(C)c2c(n1)oc1c(NC3CN(c4cc(Cl)ncc4Cl)C3)ncnc12 [Compound 290, dihydrochloride]      f
 4  Cc1c(Cl)cnc2sc3c(NCc4ccc5c(c4)CC(C)(C)O5)ncnc3c12 [Compound 233]      f
 5  Cc1nnc2sc3c(NCc4ccc(C(F)(F)F)nc4)ncnc3c2c1C [Compound 146, hydrochloride]      t
 6  Cc1nnc2oc3c(NCc4ccc(C(C)(C)O)cc4)ncnc3c2c1C [Compound 299]      f
 7  Cc1nc2sc3c(NCc4ccc(C(C)(C)O)c(F)c4)ncnc3c2c(C)c1Cl [Compound 278]      f
 8  Cc1nnc2sc3c(N4CCC(C(=O)Nc5ccccn5)C4)ncnc3c2c1C (centres unmarked) [Compound 174]      t
 9  Cc1nc2oc3c(NCc4cccc(C(C)(C)O)c4)ncnc3c2c(C)c1Cl [Compound 288]      f
10  Cc1nnc2oc3c(NCc4ccc(C(C)(O)C(F)(F)F)cc4)ncnc3c2c1C (centres unmarked) [Compound 312]      t
11  COc1cc(F)c(CNc2ncnc3c2oc2nnc(C)c(C)c23)c(F)c1 [Compound 310]      t
12  Cc1nnc2oc3c(NCc4ccc(C(C)(C)O)nc4)ncnc3c2c1C [Compound 308]      f
13  Cc1nc2sc3c(NCc4cccc(C5(O)CCC5)c4)ncnc3c2c(C)c1Cl [Compound 277]      f
14  Cc1nnc2sc3c(NCc4cccc(C5(O)CCC5)c4)ncnc3c2c1C [Compound 102]      t
15  Cc1nnc2sc3c(NCc4ccc(C(=O)NC5CCC5)cc4)ncnc3c2c1C [Compound 150]      t
16  Cc1nnc2sc3c(NCc4ccc(F)c(C(=O)NC5CC(F)(F)C5)c4)ncnc3c2c1C [Compound 184]      t
17  CCCCCC(=O)N1CC2(CC(Nc3ncnc4c3sc3nnc(C)c(C)c34)C2)C1 [Compound 170]      f
18  COCC1CN(C(=O)c2ccc(CNc3ncnc4c3sc3nnc(C)c(C)c34)cc2)C1 [Compound 127]      t
19  Cc1nnc2sc3c(NC4CC5(C4)CN(C(=O)CC(F)(F)F)C5)ncnc3c2c1C [Compound 168]      f
20  Cc1c(Cl)cnc2sc3c(NCc4ccc(C(=O)N(C)C)cc4)ncnc3c12 [Compound 229]      f
21  Cc1nnc2sc3c(NCc4ccc(CN5CCCC5C(C)(C)O)cc4)ncnc3c2c1C (centres unmarked) [Compound 117]      t
22  Cc1cc(C)c2c(n1)oc1c(NC3CCC3)ncnc12 [Compound 293, hydrochloride]      f
23  Cc1cc(CNc2ncnc3c2sc2nnc(C)c(C)c23)cnc1C [Compound 148, hydrochloride]      t
